- Test system: HBeAg
- test-summary: PHH natural infection assay, HBeAg (alphalisa)
- Assay type: cell-based, HBV
- condition-summary: Hepatitis B virus, Hepatocyte, 72 h, read-out: HBeAg IC50
pIC50: −log10 of the molar value.

compound | tested-target | pIC50
O=C(Nc1ccc2nn(-c3ccc(Cl)cc3)nc2c1)C1CCCO1 (stereo not drawn) [Example 50] | HBeAg | 5.86
FC(F)(F)CNc1ccc2nn(-c3ccc(Cl)cc3)nc2c1 [Example 28] | HBeAg | 5.61
O=C(CCC(F)(F)F)Nc1ccc2nn(-c3ccc(Cl)cc3)nc2c1 [Example 52] | HBeAg | 5.72
CC(Nc1ccc2nn(-c3ccc(Cl)cc3)nc2c1)C(F)(F)F (stereo not drawn) [Example 32] | HBeAg | 4.97
CS(=O)(=O)c1ccc(-n2nc3ccc(N)cc3n2)cc1 [Example 7] | HBeAg | 5.49
O=C(Nc1ccc2nn(-c3ccc(F)cc3)nc2c1)C1CCCC1 [Example 43] | HBeAg | 4.89
c1ccc(-n2nc3ccc(NC4CCCC4)cc3n2)cc1 [Example 16] | HBeAg | 4.80
O=C(Nc1ccc2nn(-c3ccc(Cl)cc3)nc2c1)C1CCOCC1 [Example 45] | HBeAg | 5.70
CC(C)C(=O)NC(=S)Nc1ccc2nn(-c3ccc(Cl)cc3)nc2c1 [Example 57] | HBeAg | 5.43
CC(C)c1csc(Nc2ccc3nn(-c4ccc(Cl)cc4)nc3c2)n1 [Example 62] | HBeAg | 5.24
Nc1ccc2nn(-c3cccc(F)c3)nc2c1 [Example 5, 2-(3-Fluorophenyl)benzotriazol-5-amine] | HBeAg | 5.17
Clc1ccc(-n2nc3ccc(NCC4CCC4)cc3n2)cc1 [Example 24] | HBeAg | 5.05
